Target: human TLR8 (Homo sapiens, UniProt Q9NR97)
Sequence (Q9NR97 27-1041): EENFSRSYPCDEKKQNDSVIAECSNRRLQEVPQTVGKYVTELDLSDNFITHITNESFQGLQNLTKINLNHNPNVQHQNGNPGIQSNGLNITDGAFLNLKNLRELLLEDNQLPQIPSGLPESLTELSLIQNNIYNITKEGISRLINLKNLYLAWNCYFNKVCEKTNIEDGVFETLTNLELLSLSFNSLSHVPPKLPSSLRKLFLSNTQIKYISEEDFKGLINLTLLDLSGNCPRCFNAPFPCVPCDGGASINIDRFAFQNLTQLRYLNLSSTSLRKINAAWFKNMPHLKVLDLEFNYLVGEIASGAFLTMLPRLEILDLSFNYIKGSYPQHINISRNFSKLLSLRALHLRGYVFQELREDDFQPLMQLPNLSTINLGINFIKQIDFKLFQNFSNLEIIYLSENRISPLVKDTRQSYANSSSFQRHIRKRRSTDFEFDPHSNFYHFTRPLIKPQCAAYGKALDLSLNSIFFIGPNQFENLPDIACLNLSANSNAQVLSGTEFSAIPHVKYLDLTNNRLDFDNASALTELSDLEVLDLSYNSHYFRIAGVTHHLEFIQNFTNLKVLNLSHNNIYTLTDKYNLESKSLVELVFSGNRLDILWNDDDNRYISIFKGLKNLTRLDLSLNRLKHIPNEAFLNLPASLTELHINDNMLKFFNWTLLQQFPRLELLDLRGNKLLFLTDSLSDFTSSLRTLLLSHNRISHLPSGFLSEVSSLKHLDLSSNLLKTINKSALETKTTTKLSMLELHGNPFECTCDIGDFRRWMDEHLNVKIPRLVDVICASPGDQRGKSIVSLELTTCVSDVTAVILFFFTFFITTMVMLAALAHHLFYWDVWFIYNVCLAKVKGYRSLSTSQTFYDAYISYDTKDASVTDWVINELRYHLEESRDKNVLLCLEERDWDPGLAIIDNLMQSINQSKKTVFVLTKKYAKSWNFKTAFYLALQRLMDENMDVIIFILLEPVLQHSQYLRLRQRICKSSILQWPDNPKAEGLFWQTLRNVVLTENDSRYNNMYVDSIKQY
Assay: TLR8 inhibition reporter assay (HEK-Blue cells, SEAP reporter, R848 stimulation)
Settings: HEK-Blue cells overexpressing human TLR8, SEAP reporter, R848 15.9 μM
IC50 values by entry

// solved cases for IC50 follow
- compound: "Cc1nnn2ccc(-c3[nH]c4ccc(C5CCN(Cc6ccn(C)n6)CC5)cc4c3C(C)C)cc12 [Example 888]"
  IC50: "< 100 nM"
- compound: "Cc1cc(-c2[nH]c3ccc(C4CCN(CC(C)(C)O)CC4)cc3c2C(C)C)c2ccccc2n1 [Example 752]"
  IC50: "< 100 nM"
- compound: "CC(C)c1c(-c2n[nH]c3nc[nH]c(=O)c23)[nH]c2ccc(C3CCNCC3)cc12 [Example 21]"
  IC50: "100 to 1000 nM"
- compound: "CC(C)c1c(-c2cccn3ncnc23)[nH]c2ccc(C3CCN(CC(C)(C)O)CC3)cc12 [Example 760]"
  IC50: "< 100 nM"
- compound: "COc1cc(-c2[nH]c3ccc(C4CCN(C(=O)CN(C)C)CC4)cc3c2C(C)C)cn2ccnc12 [Example 558]"
  IC50: "< 100 nM"

-- ask GET /values?readout=IC50&item= CC(C)c1c(-c2ccnc3c2ncn3C)[nH]c2ccc(C3CCNCC3)cc12 [Example 44]
-- reply 1000 to 50000 nM

-- ask GET /values?readout=IC50&item= Cc1nc(CN2CCC(c3ccc4[nH]c(-c5ccc6nccn6c5)c(C(C)C)c4c3)CC2)c[nH]1 [Example 938]
-- reply < 100 nM

-- ask GET /values?readout=IC50&item= CCc1c(-c2ccnc3[nH]ncc23)[nH]c2c(F)cc(C3CCNCC3)cc12 [Example 251]
-- reply 100 to 1000 nM

-- ask GET /values?readout=IC50&item= Cc1cc(-c2[nH]c3ccc(C4CCN(CC(N)=O)CC4)cc3c2C(C)C)cc2cccnc12 [Example 436]
-- reply < 100 nM

-- ask GET /values?readout=IC50&item= Cc1nnn2ccc(-c3[nH]c4ccc(C5CCNCC5)cc4c3C(C)C)cc12 [Example 77]
-- reply < 100 nM

-- ask GET /values?readout=IC50&item= Cc1cn2c(C)c(-c3[nH]c4ccc(C5CCNCC5)cc4c3C(C)C)ccc2n1 [Example 123]
-- reply 100 to 1000 nM

-- ask GET /values?readout=IC50&item= Cc1cn2cc(-c3[nH]c4ccc(C5CCNCC5)cc4c3C(C)C)cc(F)c2n1 [Example 126]
-- reply 100 to 1000 nM

-- ask GET /values?readout=IC50&item= CN(C)CC(=O)N1CCC(c2ccc3[nH]c(-c4cc(F)c5nccn5c4)c(CC(F)F)c3c2)CC1 [Example 546]
-- reply 100 to 1000 nM
